targetDesc: T1, cynomolgus ROR1 (cynoROR1) on CHO-K1 cells (cynomolgus, UniProt A0A2K5WTX7 30-937)
T1 construct: whole, on cells; also called CHO-K1-cynoROR1; CHO-K1-cyROR1
experiment: flow cytometry (FACS) on CHO-K1-cynoROR1 cells, antibody 0.01-100 nM, median fluorescence intensity
Protocol: The binding properties were characterized by FACS. The recombinant antibodies obtained above were serially diluted to 9 different concentrations and incubated for 1 h, and then determined for the binding ability with HEK293T-hROR1, CHO-K1-cynoROR1 and A549 cell lines (endogenously expressing ROR1), respectively. The secondary antibody was then incubated for 1 h. The results are shown in FIG. 4-6 and Table 7-2 below.
Entries annotated with measured EC50 (read off the curve)

binder	EC50 (read off the curve)
Positive control antibody (PR000374) (antibody, human IgG1, kappa, V domains shown) VH: EVQLVESGGGLVQPGRSLRLSCTASGSDINDYPITWVRQAPGQGLEWIGFINSGGSTWYASWVKGRFTISRDDSKSIAYLQMNSLKTEDTAVYYCARGYSTYYRDFNIWGQGTLVTVSS VL: DIQMTQSPSSLSASVGDRVTINCQASQSIDSNLAWFQQKPGQPPKLLIYRASNLASGVPDRFSGSGSGTDFTLTISSLEAEDVATYYCLGGVGAVSYRTSFGGGTKVEIKR	~5 nM
PR001416 (antibody, human IgG1, kappa, V domains shown, fully human IgG1, kappa) VH: QVQLVESGGGVVQPGRSLRLSCAASGFTFSTYGMHWVRQAPGKGLEWVAVIWYDGSDKDYADSVKGRFTISRDTSKNTLYLQMNSLRAEDTAVYYCAREQARSFDLWGRGTLVTVSS VL: DIVMTQSPSTLSASVGDRVTITCRASQTINNWLAWYQQKPGKAPKLLIYKASSLESGVPSRFSGSGSGTEFTLTISSLQPDDFATYYCQQYNSYSPMYTFGQGTKVEIKR	~1 nM

Consider now this further binder.
Identify EC50 (read off the curve) associated with the binder PR001418 (antibody, human IgG1, kappa, V domains shown, fully human IgG1, kappa) VH: QVQLVESGGGVVQPGRSLRLSCAASGFTFSSYGMHWVRQAPGKGLEWVAVIWYDGSDKDYADSVKGRFTISRDTSKNTLYLQMNSLRAEDTAVYYCAREQARSFDLWGRGTLVTVSS VL: DIVMTQSPSTLSASVGDRVTITCRASQTINNWLAWYQQKPGKAPKLLIYKASSLESGVPSRFSGSGSGTEFTLTISSLQPDDFATYYCQQYNSYSPMYTFGQGTKLEIKR
~1 nM
